Cited source: patent EP0070133B1

- Test system: Rat hearts
- procedure details: Cardiac activity: rat hearts perfused by the Langendorff procedure
- condition parameters: 30 μg added to perfusate, perfused rat heart; read-out: Heart Tension
Where a name gives a salt, the structure may show the parent alone.
parameter: Emax at 0.03 mg (%)
Reply with just the number (in %).

CCOC(=O)NCCOc1ccc(CC(C)NCC(O)c2cccc(C(F)(F)F)c2)cc1 (stereo not shown)    0
CC(Cc1ccc(OCCN2CCCCC2)cc1)NCC(O)c1cccc(Cl)c1 (stereo not shown) [Example 14, dihydrochloride]    0
CC(Cc1ccc(OCCNCc2ccccc2)cc1)NCC(O)c1cccc(C(F)(F)F)c1 (stereo not shown)    7

Inquiry: Please tell me: Emax at 0.03 mg of CC(=O)NCCOc1ccc(CC(C)NCC(O)c2cccc(C(F)(F)F)c2)cc1 (stereo not shown) , system Rat hearts?
Reply text: 24
